assay: chemical genetic growth profiling, strain panel (AID 1159580);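 also: tested at 20 µM; growth read once vehicle control cultures reached saturation at 30 °C; 1 = growth at the plate median or of vehicle wells; lower values mean less growth of the strain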; conditions: S. cerevisiae deletion strains, growth OD, locus YAL026C, strain drs2, active compounds read low
Among all 5,500 compounds or so, about 2,000 (36%) were called active. Another 18% or so got no clear call; they are omitted. The list shows a part of the results.
Examples of compounds with documented normalized growth follow.
When you answer, write just the number.

CC(=O)c1cc(CC=C(C)C)c(O)c(CC=C(C)C)c1
1.01
CNNC
1.02
NC(=O)NC(=O)Cc1ccccc1
0.976
Nc1ccc(S(=O)(=O)NC(=O)c2ccccc2)cc1
1
CCC(C)C(=O)OC1[C@@H]2CC3=C4CC(=O)O[C@@H](c5ccoc5)[C@]4(C)CCC3[C@@](C)(C2=O)[C@@H](CC(=O)OC)C1(C)C (stereo partly drawn)
1.01
CS(=O)(=O)Nc1ccc([N+](=O)[O-])cc1Oc1ccccc1
0.991

Item COc1cc(C(C)=O)cc(OC)c1O has what recorded normalized growth? 1.03

Item NC(=O)c1cccnc1 has what recorded normalized growth? 0.979

----------
test: chemical genetic growth profiling, strain panel (AID 1159580); details: S. cerevisiae deletion strains, growth OD, locus YNL067W, strain RPL9B, active compounds read low
Screen size: about 5,500 compounds; about 2,000 (36%) were called active. Inconclusive results (about 18%) are left out. This is one part of the list.
Examples of compounds with documented normalized growth follow.

Here is how some compounds turned out for normalized growth.
O=C(OCc1ccccc1)c1ccccc1
0.954 (inactive)
C[C@H](CCC(=O)O)[C@H]1CCC2C3C(=O)CC4CC(=O)CC[C@]4(C)C3CC(=O)[C@@]21C (stereo partly specified)
1.01 (inactive)
CC(C)=CCc1c2c(c3occ(-c4ccc(O)cc4)c(=O)c3c1O)C=CC(C)(C)O2
0.93 (inactive)
CNCCCC12CCC(c3ccccc31)c1ccccc12
1 (inactive)
CN(C)[C@@H]1C(=O)C(C(N)=O)=C(O)[C@@]2(O)C(=O)C3=C(O)c4c(O)ccc(Cl)c4[C@@](C)(O)[C@H]3C[C@@H]12
0.991 (inactive)

Consider the record given below.
Item CC(=O)O[C@H]1CC[C@@]2(C)C(=CC(=O)C3C4CCC(C(C)CCCC(C)C)[C@@]4(C)CCC32)C1 (stereo partly specified) has what recorded normalized growth? 1.01 (inactive)

----------
Examples of compounds with documented normalized growth follow.
experiment: chemical genetic growth profiling, strain panel (AID 1159580); settings: S. cerevisiae deletion strains, growth OD, locus YHR079C, strain IRE1, active compounds read low
The campaign covered roughly 5,500 compounds. About 2,000 (36%) were called active. Not shown: some 18% with an inconclusive outcome. Some of the results follow.

Here is how some compounds turned out for normalized growth.
O=C(CSC1=NNC(c2ccccn2)S1)Nc1ccccc1 (stereo not given)
1.08 (inactive)
CC(Cc1cccc(C(F)(F)F)c1)NCCOC(=O)c1ccccc1 (stereo not given)
0.981 (inactive)
CCCc1cc(=O)[nH]c(=S)[nH]1
1.03 (inactive)
COc1cc(C/C=C/c2ccccc2)c(OC)cc1O
1.04 (inactive)
Nc1ccc(C(=O)O)cc1
1.01 (inactive)

Item CC(C)CCCC(C)C1CCC2C3CC(=O)[C@H]4C[C@@H](O)CC[C@]4(C)C3CC[C@]12C (stereo not given in full) has what recorded normalized growth? 1.04 (inactive)

Item NCC(=O)c1ccccc1 has what recorded normalized growth? 1.03 (inactive)

Item N=C(N)N has what recorded normalized growth? 1.03 (inactive)

Item CCCOc1ccc2nc(NC(=O)OC)[nH]c2c1 has what recorded normalized growth? 1.02 (inactive)

Item COC(=O)/C(=C1\OC(=O)C(c2ccccc2)=C1O)c1ccccc1 has what recorded normalized growth? 0.912 (inactive)

Item NC(=O)NC(=O)Cc1ccccc1 has what recorded normalized growth? 0.978 (inactive)

Item CC(C)CCCC(C)C1CCC2C3CC[C@H]4C[C@H](O)CC[C@]4(C)C3CC[C@]12C (stereo not given in full) has what recorded normalized growth? 0.985 (inactive)

Item Cc1cc(=O)oc2cc(O)c(O)cc12 has what recorded normalized growth? 0.901 (inactive)

Item CC(=O)Oc1ccc(/C=C/c2cc(OC(C)=O)cc(OC(C)=O)c2)cc1 has what recorded normalized growth? 1.03 (inactive)

Item O=S(=O)(Oc1ccc(-c2csnn2)cc1)c1ccccc1Cl has what recorded normalized growth? 0.929 (inactive)

Item CCCSc1ccc2nc(NC(=O)OC)[nH]c2c1 has what recorded normalized growth? 0.933 (inactive)

Item N#CSCC(=O)c1ccccc1 has what recorded normalized growth? 0.107 (active)

Item CC(=O)Oc1ccc(C(c2ccc(OC(C)=O)cc2)c2ccccn2)cc1 has what recorded normalized growth? 0.983 (inactive)

Item O=C(OCc1ccccc1)c1ccccc1 has what recorded normalized growth? 0.902 (inactive)

Item O=C(CC(=O)c1ccccc1)c1ccccc1 has what recorded normalized growth? 0.468 (active)

Item CC(=O)Oc1cccc(O)c1 has what recorded normalized growth? 0.967 (inactive)

Item COC(=O)[C@H](Cc1ccccc1)NC(=O)/C(=C1\OC(=O)C(c2ccccc2)=C1O)c1ccccc1 has what recorded normalized growth? 1.06 (inactive)

Item Oc1c(Cl)cc(Cl)cc1Sc1cc(Cl)cc(Cl)c1O has what recorded normalized growth? 0.129 (active)

Item CC(C)CCCC(C)[C@H]1CCC2C3CC=C4CC(=O)CC[C@]4(C)C3CC[C@@]21C (stereo not given in full) has what recorded normalized growth? 0.997 (inactive)

Item CC(C)CCCC(C)C1CCC2C3=CC[C@H]4C[C@@H](O)CC[C@]4(C)C3CC[C@@]21C (stereo not given in full) has what recorded normalized growth? 1.02 (inactive)

----------
test: chemical genetic growth profiling, strain panel (AID 1159580);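 also: tested at 20 µM; growth read once vehicle control cultures reached saturation at 30 °C; 1 = growth at the plate median or of vehicle wells; lower values mean less growth of the strain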; conditions: S. cerevisiae deletion strains, growth OD, locus YPL204W, strain HRR25, active compounds read low
The whole screen tested about 5,500 compounds, of which about 2,000 (36%) were called active. Roughly 18% stayed inconclusive and do not appear here. Some of the results follow.
MEASUREMENT_TYPE: normalized growth
When you answer, write just the number.

Clc1ccc(CN2CCN(c3cccc4[nH]ccc34)CC2)cc1Cl
0.979
Clc1ccc(SCc2ccsc2-c2ncns2)cc1
0.934
Cc1cc(/C(N)=N\OC(=O)C(C)(C)C)cc(/C(N)=N\OC(=O)C(C)(C)C)c1
0.969
OC(COc1ccc(F)cc1)(c1ccc(Cl)cc1)c1ccc(Cl)cc1
0.986
Cc1onc(-c2c(Cl)cccc2Cl)c1C(=O)O/N=C(/N)Cc1ccc(C(C)(C)C)cc1
1.02

Consider the record given below.
Item O=C(Nc1cccc(Cl)c1)O/N=C1\CCCc2occc21 has what recorded normalized growth? 0.773

----------
test: chemical genetic growth profiling, strain panel (AID 1159580);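 also: tested at 20 µM; growth read once vehicle control cultures reached saturation at 30 °C; 1 = growth at the plate median or of vehicle wells; lower values mean less growth of the strain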; details: S. cerevisiae deletion strains, growth OD, locus YJL095W, strain BCK1 (second series), active compounds read low
The campaign covered roughly 5,500 compounds. About 2,000 (36%) were called active. Inconclusive results (about 18%) are left out. Some of the results follow.
MEASUREMENT_TYPE: normalized growth
When you answer, write just the number.

Item CC(C)CCCC(C)C1CCC2C3CC(=O)[C@H]4C[C@@H](O)CC[C@]4(C)C3CC[C@]12C (stereo partly specified) has what recorded normalized growth? 1.01

Item Cc1nc(N)cc(C[n+]2csc(CCO)c2C)n1 has what recorded normalized growth? 0.978

Item O=P1(NCCCl)OCCCN1CCCl (stereo unspecified) has what recorded normalized growth? 0.995

Item CS(=O)(=O)c1ccc([C@@H](O)[C@@H](CO)NC(=O)C(Cl)Cl)cc1 has what recorded normalized growth? 1.01

----------
experiment: chemical genetic growth profiling, strain panel (AID 1159580);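 also: tested at 20 µM; growth read once vehicle control cultures reached saturation at 30 °C; 1 = growth at the plate median or of vehicle wells; lower values mean less growth of the strain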; conditions: S. cerevisiae deletion strains, growth OD, locus YIL073C, strain SPO22, active compounds read low
Screen size: about 5,500 compounds; about 2,000 (36%) were called active. Inconclusive results (about 18%) are left out. This is one part of the list.
Examples of molecules with documented normalized growth follow.
When you answer, write just the number.

O=C(O)c1cc(O)c2c(c1)[C@@H]([C@H]1c3cc(C(=O)O)cc(O)c3C(=O)c3c(O[C@H]4O[C@H](CO)[C@@H](O)[C@H](O)[C@H]4O)cccc31)c1cccc(O[C@H]3O[C@H](CO)[C@@H](O)[C@H](O)[C@H]3O)c1C2=O
1.06
CN(C)C1C(=O)C(C(N)=O)=C(O)C2(O)C(=O)C3=C(O)c4c(O)ccc(Cl)c4C(C)(O)C3CC12 (stereo not drawn)
0.96
O=C(O)C1=CCCNC1
0.943

Item CC(C)=CC1C(C(=O)O)C1(C)C (stereo not drawn) has what recorded normalized growth? 0.967

Item CC(C)CC1NC(=O)CNC1=O (stereo not drawn) has what recorded normalized growth? 0.986

Item C=C(C)C1(O)OC(=O)C=C1OC (stereo not drawn) has what recorded normalized growth? 0.978

Item C[C@H]1c2cccc(O)c2C(O)=C2C(=O)[C@]3(O)C(O)=C(C(N)=O)C(=O)[C@@H](N(C)C)[C@@H]3[C@@H](O)[C@@H]21 has what recorded normalized growth? 0.751

Item CN(C)[C@@H]1C(=O)C(C(N)=O)=C(O)[C@@]2(O)C(=O)C3=C(O)c4c(O)ccc(Cl)c4[C@@H](O)[C@H]3C[C@@H]12 has what recorded normalized growth? 0.992

From: PubChem BioAssay AID1159580
